System: E. cloacae 908RN
Assay: MIC
Details: Enterobacter cloacae, E. colacae 908RN, Table 5
Listing: MIC of selected compounds
Please state the number and follow it with the unit.

Determine from records and report MIC for Cc1cc(SCC2=C(C(=O)O)N3C(=O)C(NC(=O)C(=NOC(C)(C)C(=O)NNC(=O)c4ccc(O)c(O)c4)c4csc(N)n4)C3SC2)n2ncc(C(=O)O)c2n1 (stereo not drawn)
1.56 µg/mL

Report measured MIC; entry is CC(C)(ON=C(C(=O)NC1C(=O)N2C(C(=O)O)=C(CSc3c4c(nc5nc(C(=O)O)nn35)CCC4)CSC12)c1csc(N)n1)C(=O)NNC(=O)c1ccc(O)c(O)c1 (stereo not drawn)
0.2 µg/mL

Identify measured MIC associated with CC(C)(ON=C(C(=O)NC1C(=O)N2C(C(=O)O)=C(CSc3ccnc4ncnn34)CSC12)c1csc(N)n1)C(=O)NNC(=O)c1ccc(O)c(O)c1 (stereo not drawn)
25 µg/mL

Supply reported MIC belonging to this compound: Cc1nc2nc(C(=O)O)nn2c(SCC2=C(C(=O)O)N3C(=O)C(NC(=O)C(=NOC(C)(C)C(=O)NNC(=O)c4ccc(O)c(O)c4)c4csc(N)n4)C3SC2)c1C (stereo not drawn)
0.2 µg/mL

Return MIC for the following compound: Cc1nc2ncnn2c(SCC2=C(C(=O)O)N3C(=O)C(NC(=O)C(=NOC(C)(C)C(=O)NNC(=O)c4ccc(O)c(O)c4)c4csc(N)n4)C3SC2)c1C (stereo not drawn)
1.56 µg/mL

Kindly consider the entry below.
Specify reported MIC for the compound shown: Cc1nc2c(C(=O)O)cnn2c(SCC2=C(C(=O)O)N3C(=O)C(NC(=O)C(=NOC(C)(C)C(=O)NNC(=O)c4ccc(O)c(O)c4)c4csc(N)n4)C3SC2)c1C (stereo not drawn)
0.39 µg/mL

----------
Test system: P. aeruginosa 5D58-1
Test: MIC
Conditions: Pseudomonas aeruginosa, 5D581, P. aeruginosa 5D58-1; Table 5
The molecules listed here are annotated with their MIC.
Output spec: scalar in µg/mL, unitless text.

Solved cases below.
Give MIC for Cc1nc2nc(C(=O)O)nn2c(SCC2=C(C(=O)O)N3C(=O)C(NC(=O)C(=NOC(C)(C)C(=O)NNC(=O)c4ccc(O)c(O)c4)c4csc(N)n4)C3SC2)c1C (centres unmarked) tested on P. aeruginosa 5D58-1.
0.39

Quote P. aeruginosa 5D58-1 MIC for entry Cc1cc(SCC2=C(C(=O)O)N3C(=O)C(NC(=O)C(=NOC(C)(C)C(=O)NNC(=O)c4ccc(O)c(O)c4)c4csc(N)n4)C3SC2)n2ncnc2n1 (centres unmarked) .
0.2

---
// fetch MIC; item: CC(C)(ON=C(C(=O)NC1C(=O)N2C(C(=O)O)=C(CSc3c4c(nc5ncnn35)CCC4)CSC12)c1csc(N)n1)C(=O)NNC(=O)c1ccc(O)c(O)c1 (centres unmarked) ; system: P. aeruginosa 5D58-1
0.78

State, for P. aeruginosa 5D58-1, measured MIC of the molecule listed here: Cc1cc(SCC2=C(C(=O)O)N3C(=O)C(NC(=O)C(=NOC(C)(C)C(=O)NNC(=O)c4ccc(O)c(O)c4)c4csc(N)n4)C3SC2)n2ncc(C(=O)O)c2n1 (centres unmarked)
0.05

# lookup: P. aeruginosa 5D58-1 MIC, key = Cc1nc2c(C(=O)O)cnn2c(SCC2=C(C(=O)O)N3C(=O)C(NC(=O)C(=NOC(C)(C)C(=O)NNC(=O)c4ccc(O)c(O)c4)c4csc(N)n4)C3SC2)c1C (centres unmarked)
0.2

----------
Tested on: C. freundii GN7391
Experiment: MIC
Conditions: Citrobacter freundii, GN7391, C. freundii GN7391; Table 7
Structures can show the parent of a compound that is named as a salt.
OBSERVABLE: log10(MIC) (log10 of the value in µg/mL)
On a log10 scale: recorded MIC, unit µg/mL.

Please report the measured log10(MIC) for CC(=O)Oc1ccc(C(=O)NNC(=O)C(C)(C)ON=C(C(=O)NC2C(=O)N3C(C(=O)O)=C(CSc4cc(C)nc5c(C(=O)O)cnn45)CSC23)c2csc(N)n2)cc1OC(C)=O (stereo not drawn) [Example 53, sodium salt] tested on C. freundii GN7391.
0.80

System C. freundii GN7391. Read-out log10(MIC). Item Cc1cc(SCC2=C(C(=O)O)N3C(=O)C(NC(=O)C(=NOC(C)(C)C(=O)NNC(=O)c4ccc(O)c(O)c4)c4csc(N)n4)[C@H]3SC2)n2nc(C(F)(F)F)nc2n1 (stereo partly drawn) . Report value.
0.80

Find log10(MIC) for CC(=O)Oc1ccc(C(=O)NNC(=O)C(C)(C)ON=C(C(=O)NC2C(=O)N3C(C(=O)O)=C(CSc4cc(C)nc5nc(C(=O)O)nn45)CS[C@H]23)c2csc(N)n2)cc1OC(C)=O (stereo partly drawn) on C. freundii GN7391 and write it down.
1.10

Provide measured log10(MIC) on C. freundii GN7391 for CC(=O)Oc1ccc(C(=O)NNC(=O)C(C)(C)ON=C(C(=O)NC2C(=O)N3C(C(=O)O)=C(CSc4c(C)c(C)nc5c(C(=O)O)cnn45)CS[C@H]23)c2csc(N)n2)cc1OC(C)=O (stereo partly drawn) please.
0.19

Continuing:
Please tell me the measured log10(MIC) for CC(C)(ON=C(C(=O)NC1C(=O)N2C(C(=O)O)=C(CSc3ccnc4nc(C(=O)O)nn34)CS[C@H]12)c1csc(N)n1)C(=O)NNC(=O)c1ccc(O)c(O)c1 (stereo partly drawn) ; system: C. freundii GN7391.
1.40

State, for C. freundii GN7391, measured log10(MIC) of the compound listed here: Cc1cc(SCC2=C(C(=O)O)N3C(=O)C(NC(=O)C(=NOC(C)(C)C(=O)NNC(=O)c4ccc(O)c(O)c4)c4csc(N)n4)[C@H]3SC2)n2nc(C)cc2n1 (stereo partly drawn)
0.50

Tell me its log10(MIC) on C. freundii GN7391: Cc1cc(SCC2=C(C(=O)O)N3C(=O)C(NC(=O)C(=NOC(C)(C)C(=O)NNC(=O)c4ccc(O)c(O)c4)c4csc(N)n4)[C@H]3SC2)n2nccc2n1 (stereo partly drawn)
0.50

Fill in: log10(MIC) on C. freundii GN7391, entry CC(=O)Oc1ccc(C(=O)NNC(=O)C(C)(C)ON=C(C(=O)NC2C(=O)N3C(C(=O)O)=C(CSc4ccnc5nc(C(=O)O)nn45)CS[C@H]23)c2csc(N)n2)cc1OC(C)=O (stereo partly drawn)
2.00

Name the value of log10(MIC) reported for CC(=O)Oc1ccc(C(=O)NNC(=O)C(C)(C)ON=C(C(=O)NC2C(=O)N3C(C(=O)O)=C(CSc4cc(C)nc5nc(C(F)(F)F)nn45)CS[C@H]23)c2csc(N)n2)cc1OC(C)=O (stereo partly drawn) when tested on C. freundii GN7391.
1.10

----------
System: S. marcescens GN10857
Assay: MIC
Details: Serratia marcescens, GN10857, S. marcescens GN10857; Table 7
Entries annotated with measured MIC
Report only the number, with the unit µg/mL understood.

Output measured MIC for this item: CC(=O)Oc1ccc(C(=O)NNC(=O)C(C)(C)ON=C(C(=O)NC2C(=O)N3C(C(=O)O)=C(CSc4ccnc5nc(C(=O)O)nn45)CS[C@H]23)c2csc(N)n2)cc1OC(C)=O (some centres unmarked) [Example 46]
0.78

Quickly give me recorded MIC for CC(=O)Oc1ccc(C(=O)NNC(=O)C(C)(C)ON=C(C(=O)NC2C(=O)N3C(C(=O)O)=C(CSc4cc(C)nc5nc(C(=O)O)nn45)CS[C@H]23)c2csc(N)n2)cc1OC(C)=O (some centres unmarked) [Example 45]
1.56

Give the value of MIC reported for the following: Cc1cc(SCC2=C(C(=O)O)N3C(=O)C(NC(=O)C(=NOC(C)(C)C(=O)NNC(=O)c4ccc(O)c(O)c4)c4csc(N)n4)[C@H]3SC2)n2nccc2n1 (some centres unmarked) [Example 58]
1.56

Assign MIC to the following record: CC(=O)Oc1ccc(C(=O)NNC(=O)C(C)(C)ON=C(C(=O)NC2C(=O)N3C(C(=O)O)=C(CSc4cc(C)nc5nc(C(F)(F)F)nn45)CS[C@H]23)c2csc(N)n2)cc1OC(C)=O (some centres unmarked) [Example 48]
12.5

Shift focus to the following entry.
Answer with the recorded MIC of CC(C)(ON=C(C(=O)NC1C(=O)N2C(C(=O)O)=C(CSc3ccnc4nc(C(=O)O)nn34)CS[C@H]12)c1csc(N)n1)C(=O)NNC(=O)c1ccc(O)c(O)c1 (some centres unmarked) [Example 56] only.
0.39

----------
Quick list: half-life per entry.
Experiment: in vivo
Parameters: species or system Macaco
Conditions: monkey, 20 mg/kg
Use h as the unit, but write only the number.

Worked examples follow.
Return value of half-life for input CC(C)(ON=C(C(=O)NC1C(=O)N2C(C(=O)O)=C(CSc3c4c(nc5c(C(=O)O)cnn35)CCC4)CSC12)c1csc(N)n1)C(=O)NNC(=O)c1ccc(O)c(O)c1 (stereo not shown) , no commentary.
4.7

Give me measured half-life, please, for this molecule: Cc1cc(SCC2=C(C(=O)O)N3C(=O)C(NC(=O)C(=NOC(C)(C)C(=O)NNC(=O)c4ccc(O)c(O)c4)c4csc(N)n4)C3SC2)n2ncc(C(=O)O)c2n1 (stereo not shown)
4

State its half-life for this molecule: Cc1cc(SCC2=C(C(=O)O)N3C(=O)C(NC(=O)C(=NOC(C)(C)C(=O)NNC(=O)c4ccc(O)c(O)c4)c4csc(N)n4)C3SC2)n2nc(C(=O)O)nc2n1 (stereo not shown)
5.3

New cases:
Please give measured half-life of the following entry: Cc1cc(O)c(C(=O)N[C@@H](C(=O)N[C@@H]2C(=O)N3C(C(=O)O)=C(CSc4nnnn4C)CS[C@H]23)c2ccc(O)cc2)cn1 [Cefpiramide, cefpiramide, reference compound]
2.5
